Can you tell me apparent KD of MS2 coat protein for the items I'm about to list?
- Test system: MS2 coat protein
- assay-remarks: apparent KD of MS2 coat protein; designed switch direction (-1 OFF switch, 1 ON switch): -1; higher = weaker reporter binding
- assay-setup: input ligand: FMN 200 uM

Previously resolved entries follow.
seq-text	apparent KD of MS2 coat protein
UUAUUAUAUGUAGGAUAUGCAUAUUGUUGUUAUGCAGAAGGACAUGAGGAUCACCCAUGUAUAUUAUUGUUGUAUAUUAUAUAU [Title] (Eterna round: R96, puzzle: Exclusion NG 1)	37.4 nM
UUUAAACAUGAGGAUCACCCAUGUUAGGAUAUACGCAUGCAGACACGCACGGAUGCAAGUAGAAGGAACCAUGC [Design #6] (Eterna round: R97, puzzle: Exclusion 1)	27.9 nM
GCUUGUCGAGGAUAUGCAUACACUGGAUACAGUGGAAGGUCACAUGAGGAUCACCCAUGUAGAAGGCGACGAGC [EX2 #39] (Eterna round: R97, puzzle: Exclusion 2)	121 nM
AAAUUCAGAGGAUAUGCGCAUAGAUAAGACUUUUUUUCUUAACAUGAGGAUCACCCAUGUAGAAGGCUGUAAAA [Ex2 #60] (Eterna round: R97, puzzle: Exclusion 2)	20.5 nM

# input for lookup
Item: CUCCGGCGUGUAGGAUAUGGAUCCGAUUAGGAUCCAGAAGGACAUGAGGAUCACCCAUGUACAUGUCGGCGGUCGUCACCGGGC [salish99_ExNG1_r04_209] (Eterna round: R96, puzzle: Exclusion NG 1) | apparent KD of MS2 coat protein: 34 nM
